Molecular target: LZK (Homo sapiens)
Construct: 10 nM LZK, catalytic domain, Carna Biosiences in assay buffer; purchased Carna Biosciences ('Carna Biosiences' [sic])
Sequence (O43283 168-409 limits assumed): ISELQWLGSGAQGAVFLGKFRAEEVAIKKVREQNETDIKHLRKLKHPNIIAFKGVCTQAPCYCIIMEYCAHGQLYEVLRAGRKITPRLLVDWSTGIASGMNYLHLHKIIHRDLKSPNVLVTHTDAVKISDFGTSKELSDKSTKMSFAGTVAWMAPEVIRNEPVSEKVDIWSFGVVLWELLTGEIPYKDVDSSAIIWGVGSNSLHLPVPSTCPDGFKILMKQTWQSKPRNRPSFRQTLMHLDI
Assay: LZK biochemical assay (TR-FRET, MKK7 phosphorylation)
pIC50: −log10 of the molar value.
Threshold check on pIC50: at or above 7 gives true, strictly below gives false.

CCC(c1ccc(C(F)(F)F)cc1)n1cc(-c2cc(-c3cnn(CC(F)(F)F)c3)n3nc(N)nc3c2)cn1 (stereo not shown) [II-129]: false
Nc1nc2cc(-c3cnn(C(c4ccc(C(F)(F)F)nc4)C4CCOCC4)c3)cc(-c3ccc(=O)n(CC(F)F)c3)n2n1 (single isomer, unassigned) [II-186]: true
CN(C)c1cccc(-c2cc(-c3cnn(C(c4ccc(C(F)(F)F)nc4)C4CCOCC4)c3)cn3nc(N)nc23)c1 (single isomer, unassigned) [II-24]: true
CCC(c1ccc(C(F)F)nc1)n1cc(-c2cc(-c3cnn(CC(F)(F)F)c3)c3nc(N)nn3c2)cn1 (single isomer, unassigned) [II-107]: true
Nc1nc2c(-c3ccn(CC(F)(F)F)c(=O)c3)cc(-c3cnn(C(c4ccc(C(F)(F)F)nc4)C4CCOCC4)c3)cn2n1 (single isomer, unassigned) [II-177]: true

QUERY: Does CC(C)C(c1ccc(C(F)F)nc1)n1cc(-c2cc(-c3ccc(OC(F)F)nc3)n3nc(N)nc3c2)cn1 (single isomer, unassigned) [II-50] have a reported pIC50 of at least 7?
RESULT: false

QUERY: Another compound to check: Nc1nc2c(-c3ccc(=O)n(CC(F)(F)F)c3)cc(-c3cnn(C(c4ccc(C(F)(F)F)nc4)C4CCOCC4)c3)cn2n1 (single isomer, unassigned) [II-161]
RESULT: true

QUERY: Another compound to check: Nc1nc2cc(-c3cnn(C(c4ccc(C(F)(F)F)nc4)C4CCOCC4)c3)cc(-c3ccc(=O)n(CC(F)F)c3)n2n1 (single isomer, unassigned) [II-187]
RESULT: true

QUERY: Another compound to check: CC[C@@H](c1ccc(OC(F)(F)F)nc1)n1cc(-c2cc(-c3cnn(CC(F)(F)F)c3)n3nc(N)nc3c2)cn1 (single isomer, unassigned)
RESULT: true

###

Target: LZK (Homo sapiens)
Construct: 10 nM LZK, catalytic domain, Carna Biosiences in assay buffer; purchased Carna Biosciences ('Carna Biosiences' [sic])
Experiment: LZK biochemical assay (TR-FRET, MKK7 phosphorylation)
OBSERVED_PROPERTY: pIC50
pIC50 here is simply -log10 of the concentration when that concentration is written in mol/L.

CC(C)C(c1ccc(C(F)(F)F)nc1)n1cc(-c2cc(-c3ccnc(C(F)(F)F)c3)n3nc(N)nc3c2)cn1 (single isomer, unassigned) [II-30]: 8.17
CCC(c1ccc(C(F)(F)F)nc1)n1cc(-c2cc(-c3ccc(=O)n(C(F)F)c3)n3nc(N)nc3c2)cn1 (centres unmarked) [II-179]: 8.10
CC(C)C(c1ccc(C(F)(F)F)nc1)n1cc(-c2cc(-c3cnn(CC4CC4(F)F)c3)n3nc(N)nc3c2)cn1 (centres unmarked): 7.92
Nc1nc2cc(-c3cnn(C(c4ccc(C(F)(F)F)nc4)C4CCOCC4)c3)cc(-c3ccnc(C(F)(F)F)c3)n2n1 (racemic) [II-34]: 8.15

QUERY: May I ask what pIC50 has been recorded for CC(C)C(c1ccc(C(F)(F)F)nc1)n1cc(-c2cc(-c3ccc(C(F)F)nc3)n3nc(N)nc3c2)cn1 (single isomer, unassigned) [II-71] ?
RESULT: 7.13

QUERY: Another molecule to check: CCC(c1ccc(C(F)(F)F)nc1)n1cc(-c2cc(-c3cnn(CC(F)(F)F)c3)c3nc(N)nn3c2)cn1 (racemic) [II-111]
RESULT: 7.47

QUERY: Another molecule to check: CCC(c1ccc(C(F)F)nc1)n1cc(-c2cc(-c3ccc(C(F)(F)F)nc3)n3nc(N)nc3c2)cn1 (single isomer, unassigned) [II-62]
RESULT: 6.66

QUERY: Another molecule to check: CC(C)C(c1ccc(C(F)(F)F)nc1)n1cc(-c2cc(-c3cnc(OCC(F)(F)F)nc3)n3nc(N)nc3c2)cn1 (racemic)
RESULT: 6.49

QUERY: Another molecule to check: CCC(c1ccc(C(F)(F)F)nc1)n1cc(-c2cc(-c3cc(CO)ccc3Cl)c3nc(N)nn3c2)cn1 (single isomer, unassigned) [II-3]
RESULT: 8.19
